System: KB
assay: Growth inhibition of human KB cells after 72 hrs by SRB assay
Format: functional
readout name: GI50 (µM)
Response body: numeric value in µM, unit text excluded.

Example entries and their recorded answers appear below.
>  <compound>
C=C1CC[C@@H]2[C@](C)(CO)[C@H](O)CC[C@@]2(C)[C@@H]1C/C=C1/C(=O)OC[C@H]1O [ANDROGRAPHOLIDE]

>  <readout units>
µM

>  <GI50>
13.2

$$$$
>  <compound>
C=C1CC[C@@H]2[C@]3(C)CO[C@@H](c4ccco4)O[C@@H]3CC[C@@]2(C)[C@@H]1/C=C/C1=CCOC1=O

>  <readout units>
µM

>  <GI50>
36.4

$$$$
>  <compound>
C=C1CC[C@@H]2[C@]3(C)CO[C@@H](c4ccc(C(F)(F)F)cc4)O[C@@H]3CC[C@@]2(C)[C@@H]1/C=C/C1=CCOC1=O

>  <readout units>
µM

>  <GI50>
23.4

$$$$
>  <compound>
C=C1CC[C@@H]2[C@]3(C)CO[C@@H](c4ccc(O)cc4)O[C@@H]3CC[C@@]2(C)[C@@H]1/C=C/C1=CCOC1=O

>  <readout units>
µM

>  <GI50>
23.7

$$$$

Q: What value of measured GI50 is listed for C=C1CC[C@@H]2[C@]3(C)CO[C@@H](c4ccc(OC)cc4)O[C@@H]3CC[C@@]2(C)[C@@H]1/C=C/C1=CCOC1=O ?
A: 32.9

Q: What value of measured GI50 is listed for C=C1CC[C@@H]2[C@](C)(COC(=O)c3cnccn3)[C@H](OC(=O)c3cnccn3)CC[C@@]2(C)[C@@H]1/C=C/C1=CCOC1=O ?
A: 8.24

Q: What value of measured GI50 is listed for C=C1CC[C@@H]2[C@](C)(COC(=O)C3CCCN3C(=O)OC(C)(C)C)[C@H](OC(=O)C3CCCN3C(=O)OC(C)(C)C)CC[C@@]2(C)[C@@H]1/C=C/C1=CCOC1=O (some centres not stated) ?
A: 12.5

====

Quick list: GI50 per entry.
System: A549
assay: Growth inhibition of human A549 cells after 72 hrs by SRB assay
Assay type: functional
measurement setup: A549, 72 h
Response body: numeric value in µM, unit text excluded.

Example entries and their recorded answers appear below.
>  <molecule>
C=C1CC[C@@H]2[C@]3(C)CO[C@@H](c4ccco4)O[C@@H]3CC[C@@]2(C)[C@@H]1/C=C/C1=CCOC1=O

>  <GI50 / µM>
34

$$$$
>  <molecule>
C=C1CC[C@@H]2[C@](C)(COC(=O)C3CCCN3C(=O)OC(C)(C)C)[C@H](OC(=O)C3CCCN3C(=O)OC(C)(C)C)CC[C@@]2(C)[C@@H]1/C=C/C1=CCOC1=O (some centres not stated)

>  <GI50 / µM>
10.2

$$$$
>  <molecule>
C=C1CC[C@@H]2[C@]3(C)CO[C@@H](c4ccc(O)cc4)O[C@@H]3CC[C@@]2(C)[C@@H]1/C=C/C1=CCOC1=O

>  <GI50 / µM>
22.8

$$$$

Next up:
Q: Entry C=C1CC[C@@H]2[C@]3(C)CO[C@@H](c4ccc(C(F)(F)F)cc4)O[C@@H]3CC[C@@]2(C)[C@@H]1/C=C/C1=CCOC1=O , system A549: what GI50 was measured?
A: 16.9
